Listing of recorded pIC50 by entry.
Target: human orexin-1 receptor (hOX1R) (Homo sapiens, UniProt O43613)
Sequence (O43613 whole entry): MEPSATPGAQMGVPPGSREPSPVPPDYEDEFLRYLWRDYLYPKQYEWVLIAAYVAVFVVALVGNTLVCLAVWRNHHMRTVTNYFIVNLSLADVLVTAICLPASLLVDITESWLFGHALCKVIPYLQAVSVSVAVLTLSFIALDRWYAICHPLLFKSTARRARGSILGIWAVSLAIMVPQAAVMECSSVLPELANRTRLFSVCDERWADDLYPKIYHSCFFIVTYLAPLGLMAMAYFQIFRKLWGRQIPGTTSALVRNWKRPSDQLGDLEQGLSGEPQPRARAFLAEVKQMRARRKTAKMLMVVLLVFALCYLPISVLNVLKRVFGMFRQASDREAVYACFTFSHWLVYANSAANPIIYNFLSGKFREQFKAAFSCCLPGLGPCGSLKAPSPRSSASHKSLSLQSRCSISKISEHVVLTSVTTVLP
Assay: Measurement of orexin antagonistic activity (intracellular Ca2+ fluorescence, FDSS) on hOX1R
Details: CHO cells forcibly expressing hOX1R; Fluo-4AM; ligand peptide (substituted human orexin-A) 300 pM; compound preincubated 30 minutes; read-out: IC50 Value OX1
Convention used: pIC50 is expressed as -log10 of the molar concentration.

Illustrative cases are given below, each with its answer.
smilesRepr: Cc1ccc(-n2nccn2)c(C(=O)N(CCO)[C@@H](C)Cn2nnc(-c3ccc(F)cc3)n2)c1
pIC50: 9.00

smilesRepr: CCN(C(=O)c1ccccc1-n1nccn1)[C@@H](C)Cn1ccc(-c2ccc(F)cn2)n1
pIC50: 9.15

smilesRepr: CCN(C(=O)c1ccccc1-n1nccn1)[C@@H](C)Cn1cc(-c2ccc(F)cn2)cn1
pIC50: 8.09

smilesRepr: CCN(C(=O)c1cc(C)ccc1-n1nccn1)[C@@H](C)Cn1cc(-c2ccc(F)c(OC)c2)nn1
pIC50: 8.74

smilesRepr: CCN(C(=O)c1cc(F)ccc1-c1ncccn1)[C@@H](C)Cn1ccc(-c2ccc(F)cc2)n1
pIC50: 9.70

Lab note: measured pIC50 of "CCN(C(=O)c1cc(C)ccc1-n1nccn1)[C@@H](C)Cn1cc(-c2ccc(F)cn2)cn1" was 9.15

Given item "CCN(C(=O)c1ccccc1-c1ncccn1)[C@@H](C)Cn1ccc(-c2ccc(F)cn2)n1" , the value recorded as its pIC50 is 8.17

The recorded pIC50 for entry "CCN(C(=O)c1cc(C)ccc1-n1nccn1)[C@@H](C)Cn1cc(-c2cccc(F)c2)nn1" equals 8.20

###

Molecular target: human orexin-1 receptor (hOX1R) (Homo sapiens, UniProt O43613)
Assay: Measurement of orexin antagonistic activity (intracellular Ca2+ fluorescence, FDSS) on hOX1R
Settings: CHO cells forcibly expressing hOX1R; Fluo-4AM; ligand peptide (substituted human orexin-A) 300 pM; compound preincubated 30 minutes; read-out: IC50 Value OX1
Experimental: The antagonistic activities of the test compounds on human orexin-1 receptor (hOX1R) and orexin-2 receptor (hOX2R) were measured by modifying from the method described in literature (Toshikatsu Okumura et al., Biochemical and Biophysical Research Communications, 280, 976-981, 2001). […]
endpointLabel: IC50 (nM)
Please give a number only; it is taken to be in nM.

compound: CCN(C(=O)c1cc(C)ccc1-n1nccn1)[C@@H](C)Cn1ccc(-c2ccc(F)cn2)n1 [Example 1]
IC50 / nM: 1
//
compound: C[C@@H](Cn1cc(-c2ccc(F)c(F)c2)cn1)N(C)C(=O)c1cc(F)ccc1-c1ncccn1 [Example 33]
IC50 / nM: 11.9

Reading of IC50 for Cc1ccc(-n2nccn2)c(C(=O)N(C)[C@@H](C)Cc2noc(-c3ccc(F)cn3)n2)c1 [Example 45] with human orexin-1 receptor (hOX1R) (Homo sapiens, UniProt O43613): 3.3

The observed IC50 for CCN(C(=O)c1cc(C)ccc1-n1nccn1)[C@@H](C)Cn1cc(-c2ccc(F)cn2)nn1 [Example 82] when tested with human orexin-1 receptor (hOX1R) (Homo sapiens, UniProt O43613) stands at 2.2

Observed IC50 on human orexin-1 receptor (hOX1R) (Homo sapiens, UniProt O43613), entry CCN(C(=O)c1cc(C)ccc1-n1nccn1)[C@@H](C)Cc1noc(-c2ccc(F)cc2)n1 [Example 61] , equals 0.7

Reference for the values: patent US20150166523A1
